- assayed_target: SpHof1
- test: SPOT peptide array binding signal intensity (averaged, normalized) (arbitrary units (background-subtracted, floor 0; scale differs between SH3 domains)); higher = stronger binding of the SH3 domain to the peptide
quantity_name: SPOT peptide array binding signal intensity

* VAPPPLPNRQLPNLD | ≤ 0
* KDKSRPPRPPPKPLH | ≤ 0
* TEVPIPRRPPPPQAA | ≤ 0
* QPQRTAPKPPISAPR | ≤ 0
* VDFTLPPPPPPPGLD | ≤ 0
* PSRRAPLQLPQLVNK | 7.75
* AHFQPQRTAPKPPIS | 1.62
* YHSRRHPLALGFKYV | 42.8
* STPQTMRQAPKRPDA | 25
* AAAPKHAPPPVPNET | ≤ 0

Source listed as the supplement of paper PMC4466140.
